Source listed as the Human Domainome abundance scans (Beltran et al. 2025).

B1: Mineralocorticoid receptor, residues 600 to 675; numbered along this chain, P08235 (parent)
chain: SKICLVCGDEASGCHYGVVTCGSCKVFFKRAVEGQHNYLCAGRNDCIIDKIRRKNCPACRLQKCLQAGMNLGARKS

# Variants of: B1
# protocol_notes: abundance fitness (aPCA) (normalised: wild type 0, dead -1); higher = more abundant; growth selection in yeast, the domain comes from the species named
# run_conditions: Homo sapiens
Tick Yes if abundance fitness is -0.1 or greater. Tick No if abundance fitness is less than -0.1.

> print(dat)
    variant.id  category.label
 1        D49I              No
 2        C64I              No
 3        K75F              No
 4        D49M              No
 5        S12H              No
 6        C64Y              No
 7        A11E             Yes
 8        A67H             Yes
 9        F28Q              No
10        Q66Y             Yes
11        C64V              No
12        G13C              No
13        S23M             Yes
14         C4E              No
15        C59Q              No
16        N55M             Yes
